# tested-system: Rat liver α-2,3-ST (Rattus norvegicus (Rat))
# assay-details: α-2,3-ST inhibition assay (IC50), RP-HPLC of sialylated disaccharide product
# Format: biochemical
# run-conditions: α-2,3-ST, CMP-Neu5Ac substrate, triplicate; read-out: IC50
pIC50: −log10 of the molar value.
value-type: pIC50

compound	test-result
C[C@H](CCC(=O)N[C@@H](CC(=O)O)C(=O)O)C1CC[C@H]2C3CC[C@@H]4C[C@H](OC(=O)CCC(=O)O)CC[C@]4(C)C3CC[C@]12C (stereo partly drawn) [Compound 16]	4.74
C[C@H](CCC(=O)O)C1CC[C@H]2C3CC[C@@H]4CC(=O)CC[C@]4(C)C3CC[C@]12C (stereo partly drawn) [Compound 11]	3.86
C[C@H](CCC(=O)O)C1CC[C@H]2C3CC[C@@H]4C[C@H](OC(=O)CCC(=O)O)CC[C@]4(C)C3CC[C@]12C (stereo partly drawn) [Compound 12]	4.92

---

Below is a list of entries, each paired with its recorded pIC50 value.
# tested-system: Rat liver α-2,3-ST (Rattus norvegicus (Rat), UniProt Q02734)
# Sequence (Q02734 whole entry): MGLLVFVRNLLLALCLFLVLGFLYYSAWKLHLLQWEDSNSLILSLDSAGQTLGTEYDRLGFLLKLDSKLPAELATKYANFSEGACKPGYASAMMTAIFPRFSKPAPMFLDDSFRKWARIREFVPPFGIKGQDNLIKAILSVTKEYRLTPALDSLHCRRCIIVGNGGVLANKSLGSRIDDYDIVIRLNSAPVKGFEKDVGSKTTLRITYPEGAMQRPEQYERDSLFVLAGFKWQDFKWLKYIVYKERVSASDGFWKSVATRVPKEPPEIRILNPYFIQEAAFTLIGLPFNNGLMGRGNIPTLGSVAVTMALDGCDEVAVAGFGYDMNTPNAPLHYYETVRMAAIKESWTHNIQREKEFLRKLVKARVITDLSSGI
# assay-details: α-2,3-ST inhibition assay (IC50), RP-HPLC of sialylated disaccharide product
# Type: biochemical
# run-conditions: α-2,3-ST, CMP-Neu5Ac substrate, triplicate; read-out: IC50
pIC50: −log10 of the molar value.
value-type: pIC50

compound	value-type	comparison-operator	test-result
C[C@H](CCC(=O)O)C1CC[C@H]2C3CC[C@@H]4C[C@H](OC(=O)[C@@H](N)CC(=O)O)CC[C@]4(C)C3CC[C@]12C (stereo partly shown) [Compound 13]	pIC50	=	4.92
C[C@H](CCCOP(=O)(Oc1ccccc1)Oc1ccccc1)C1CC[C@H]2C3CC[C@@H]4C[C@H](O)CC[C@]4(C)C3CC[C@]12C (stereo partly shown) [Compound 8]	pIC50	<	4.00
C[C@H](CCC(=O)OC(C)(C)C)C1CC[C@H]2C3CC[C@@H]4C[C@H](OC(=O)CCC(=O)O)CC[C@]4(C)C3CC[C@]12C (stereo partly shown) [Compound 14]	pIC50	=	4.89
C[C@H](CCC(=O)N[C@@H](CC(=O)O)C(=O)O)C1CC[C@H]2C3CC[C@@H]4C[C@H](O)CC[C@]4(C)C3CC[C@]12C (stereo partly shown) [Compound 10]	pIC50	=	4.80
